This collection of values is drawn from patent EP4624487A1.

Target: antiserum C2
Experiment: competition ELISA: peptide added to C2 on plate-bound hTNFα
value type: OD450 with peptide

Please review the following examples before continuing.
{"binder": "ISRIAVSYQTKVNLL [hTNFα peptide H(80-94)]", "recorded result": 1.7}
{"binder": "QTKVNLLSAIKSPCQ [hTNFα peptide H(88-102)]", "recorded result": 1.78}
{"binder": "AHVVANPQAEGQLQW [hTNFα peptide H(14-28)]", "recorded result": 1.65}
{"binder": "GDRLSAEINRPDYLD [hTNFα peptide H(129-143)]", "recorded result": 1.78}
{"binder": "LGGVFQLEKGDRLSA [hTNFα peptide H(120-134)]", "recorded result": 1.77}
{"binder": "DKPVAHVVANPQAEG [hTNFα peptide H(10-24)]", "recorded result": 1.74}

1: LSAIKSPCQRETPEG [hTNFα peptide H(94-108)]
2: LQWLNRRANALLANG [hTNFα peptide H(26-40)]
**Q:** Look at 1 and 2 . Which one has the lower recorded OD450 with peptide number? Give the label under which the chosen entry appears.
**A:** 2
